Each entry below carries its reported Kd.
assayed.system: T1, PUF4 RNA-binding domain (Saccharomyces cerevisiae, UniProt P25339 537-888)
T1 sequence: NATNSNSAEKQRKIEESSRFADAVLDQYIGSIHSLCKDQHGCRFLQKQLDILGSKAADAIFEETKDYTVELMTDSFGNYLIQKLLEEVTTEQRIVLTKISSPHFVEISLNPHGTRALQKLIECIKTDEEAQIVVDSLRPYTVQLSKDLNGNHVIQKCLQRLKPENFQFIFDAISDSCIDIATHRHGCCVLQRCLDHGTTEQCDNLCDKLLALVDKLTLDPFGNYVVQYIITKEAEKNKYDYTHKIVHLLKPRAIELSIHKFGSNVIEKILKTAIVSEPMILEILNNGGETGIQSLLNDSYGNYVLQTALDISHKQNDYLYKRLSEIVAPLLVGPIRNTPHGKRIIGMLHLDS
assay.remarks: Mg; RNA-MaP; 20 mM Na-HEPES pH 7.4, 30 mM KOAc, 0.75 mM MgCl2, 0.1% Tween-20, 5% glycerol, 0.1 mg/mL BSA, 2 mM DTT; 25 C; 0.0125-409.6 nM protein
test.conditions: tags: N-His6-TEV cleaved; C-SNAP kept, Cy3B-labelled; label: tethered on chip by stalled RNA polymerase
Quick note: give the figure in nM, leave out the unit.

# binder, result.value
records = [
    ("Ie_S2_P3E.2_K3.1_C3.2_H3.1_[+1TT]_A3.1_F3.1_T3.2 (ssRNA) RNA: UUUGAUUAAUAUGAUAUCGUUCUUUCUCUUUUGUAUAUAUAUUCUUUCUCGAUAUCAUAUUAAUCUUU", 1.22),
    ("UCUCUUUGUUUUAUUAUUAUCUCUU (ssRNA) [Ie_S1_P5E.1_K5.1_C5.1_H5.1_[+3TTT]_A5.1_F5.1_T5.1]", 28.2),
    ("UCUCUUUGUACUCUGUCUCUU (ssRNA) [Ic_S1_P4E.1_K4.1_C4.1_H4.1_A4.1_[T5C]_[A6T]_[T7C]_F4.1_[A9G]_T4.1]", 30.5),
    ("Ic_S4_P5E.1_K5.1_C5.1_H5.1_A5.1_[T5C]_[T6C]_[A7T]_F5.1_[T8A]_[T9G]_[A10C]_T5.1 (ssRNA) RNA: UUUGACAACUGAUCGUUCUUUCUUGUACCUAGCUUCUUUCUCGAUCAGUUGUCUUU", 74.3),
    ("Ic_S4_P5E.1_K5.1_C5.1_H5.1_A5.1_[T5C]_[T6A]_F5.1_[T8A]_[T9C]_[A10T]_T5.1 (ssRNA) RNA: UUUGACAACUGAUCGUUCUUUCUUGUACAAACUUUCUUUCUCGAUCAGUUGUCUUU", 80.6),
]

**Query** Query (binder): Ib_S2_P5E.1_K5.1_C5.1_H5.1_A5.1_F5.1_[T9G]_[A10T]_T5.1 (ssRNA) RNA: UUUGAUUAAUAUGAUAUCGUUCUUUCUUGUAUUAUGUUUCUUUCUCGAUAUCAUAUUAAUCUUU ; field requested: Kd
**Result** 3.65
